I'd appreciate it if you could supply binding signal values for the items below.
Target: T1, RBFOX1 RRM RbFoxmut (Fox-RRM*) (Homo sapiens, UniProt Q9NWB1 109-208, R118D;E147R;N151S;E152T)
T1 sequence: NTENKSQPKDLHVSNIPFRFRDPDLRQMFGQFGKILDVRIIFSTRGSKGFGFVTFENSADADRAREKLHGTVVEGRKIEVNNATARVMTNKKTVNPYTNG
Assay: EMSA; HiTS-Eq, 1 nM pool, 10 min; buffer printed only for the single-RNA assays: 10 mM Tris pH 7.5, 150 mM NaCl, 3.4 mM EDTA, 0.001% NP-40, 30 C
Settings: tags: His6 N-terminal (pET28a); label: 5' 32P
The full ranking holds about 16,000 sequences; the median of “ka relative to ugcaugu” is about 0.096, and the highest 2% start at about 0.35. This excerpt belongs to a sample that is enriched for the highest values.

Look up binding signal: GUUAGGG (DNA:RNA) RNA: GGGAGACCGGAAUUCAGAUUGUCCGUUAGGGUUAAAUCCCGUCGUAGCCACCA DNA 1: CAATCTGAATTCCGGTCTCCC DNA 2: TGGTGGCTACGACGGGATT
0.0712 KA relative to UGCAUGU

Look up binding signal: AGUGCCU (DNA:RNA) RNA: GGGAGACCGGAAUUCAGAUUGUCCAGUGCCUUUAAAUCCCGUCGUAGCCACCA DNA 1: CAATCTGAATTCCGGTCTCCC DNA 2: TGGTGGCTACGACGGGATT
0.0968 KA relative to UGCAUGU

Look up binding signal: ACUUGCC (DNA:RNA) RNA: GGGAGACCGGAAUUCAGAUUGUCCACUUGCCUUAAAUCCCGUCGUAGCCACCA DNA 1: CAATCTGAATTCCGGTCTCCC DNA 2: TGGTGGCTACGACGGGATT
0.372 KA relative to UGCAUGU

Look up binding signal: UCGACUC (DNA:RNA) RNA: GGGAGACCGGAAUUCAGAUUGUCCUCGACUCUUAAAUCCCGUCGUAGCCACCA DNA 1: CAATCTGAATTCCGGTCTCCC DNA 2: TGGTGGCTACGACGGGATT
0.0668 KA relative to UGCAUGU

Look up binding signal: UGAUUGU (DNA:RNA) RNA: GGGAGACCGGAAUUCAGAUUGUCCUGAUUGUUUAAAUCCCGUCGUAGCCACCA DNA 1: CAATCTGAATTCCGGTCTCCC DNA 2: TGGTGGCTACGACGGGATT
0.308 KA relative to UGCAUGU

Look up binding signal: CAGUGCG (DNA:RNA) RNA: GGGAGACCGGAAUUCAGAUUGUCCCAGUGCGUUAAAUCCCGUCGUAGCCACCA DNA 1: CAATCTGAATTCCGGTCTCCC DNA 2: TGGTGGCTACGACGGGATT
0.148 KA relative to UGCAUGU
